Some molecules, each annotated with its measured remaining activity at 10 µM.
Target: ZAP70(SH2dom1.dom2.) (Homo sapiens, UniProt P43403)
Sequence (P43403 1-254 limits assumed): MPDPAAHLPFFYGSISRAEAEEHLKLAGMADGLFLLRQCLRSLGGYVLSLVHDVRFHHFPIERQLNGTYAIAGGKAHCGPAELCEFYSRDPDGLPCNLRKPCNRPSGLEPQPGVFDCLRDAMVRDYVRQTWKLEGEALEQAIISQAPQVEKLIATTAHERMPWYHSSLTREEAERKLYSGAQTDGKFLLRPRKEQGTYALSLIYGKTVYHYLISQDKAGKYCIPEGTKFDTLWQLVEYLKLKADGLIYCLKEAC
Assay: biochemical
Conditions: read-out: percent of DMSO vehicle control
Non-standard residues stand in square brackets, D forms with d. Residues, ends and D or L forms follow the SMILES beside them. *: point of attachment. pY = N[C@@H](Cc1ccc(OP(=O)(O)O)cc1)C(=O)O; Caffeoyl = O=C(/C=C/c1ccc(O)c(O)c1)*
Reply with the number and its unit after it.

Worked set:
CC(=O)N[C@@H](Cc1ccc(CP(=O)(O)O)cc1)C(=O)NC1(C(=O)N[C@@H](CC(N)=O)C(=O)NCCCc2c(O)ccc3ccccc23)CCCCC1 [CGP78850]
91.6%
CC[C@H](C)[C@H](NC(=O)[C@H](CCC(=O)O)NC(=O)[C@H](CCC(=O)O)NC(=O)[C@H](Cc1ccc(OP(=O)(O)O)cc1)NC(=O)/C=C/c1ccc(O)c(O)c1)C(=O)N[C@@H](CCC(=O)O)C(=O)O [Caffeic acid-pYEEIE] (Caffeoyl-[pY]EEIE-OH)
32.3%

Query :: Please provide the recorded remaining activity at 10 µM for O=C(CCl)Nc1cccc(CNC(=O)[C@H](Cc2ccc(OP(=O)(O)O)cc2)NC(=O)Cc2ccc(F)cc2)c1 [MN551] , tested on ZAP70(SH2dom1.dom2.) (Homo sapiens, UniProt P43403).
Result :: 33.5%

---

Target: NCK2 (Homo sapiens, UniProt O43639)
Construct: the DNA-tagged SH2 domain concentrations used in this study were <0.1 nM; made in house; host or cells: HEK293 (transient transfection, unpurified extract)
Sequence (O43639 285-380 limits assumed): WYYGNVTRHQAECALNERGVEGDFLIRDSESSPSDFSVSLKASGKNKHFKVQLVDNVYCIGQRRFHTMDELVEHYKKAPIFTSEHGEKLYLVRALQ
Test: biochemical
Format: binding
Settings: read-out: percent of DMSO vehicle control
Non-standard residues stand in square brackets, D forms with d. Residues, ends and D or L forms follow the SMILES beside them. *: point of attachment. pY = N[C@@H](Cc1ccc(OP(=O)(O)O)cc1)C(=O)O; Caffeoyl = O=C(/C=C/c1ccc(O)c(O)c1)*
assayReadout: remaining activity at 10 µM (%)
Enter your answer as a number in %; do not include the unit.

NC(=O)CC[C@H](NC(=O)[C@@H]1CC[C@@H]2CCN(C(=O)CCCCCC#Cc3cccc4c3CN(C3CCC(=O)NC3=O)C4=O)C[C@H](NC(=O)c3cc4cc(C(F)(F)P(=O)(O)O)ccc4[nH]3)C(=O)N21)C(=O)NC(c1ccccc1)c1ccccc1 (stereo partly shown)
80
CC(=O)N1CC[C@H]2CC[C@@H](C(=O)N[C@@H](CCC(N)=O)C(=O)NC(c3ccccc3)c3ccccc3)N2C(=O)[C@@H](NC(=O)c2cc3cc(C(F)(F)P(=O)(O)O)ccc3[nH]2)C1
121
CC[C@H](C)[C@H](NC(=O)[C@H](CCC(=O)O)NC(=O)[C@H](CCC(=O)O)NC(=O)[C@H](Cc1ccc(OP(=O)(O)O)cc1)NC(=O)/C=C/c1ccc(O)c(O)c1)C(=O)N[C@@H](CCC(=O)O)C(=O)O [Caffeic acid-pYEEIE] (Caffeoyl-[pY]EEIE-OH)
2.8

Query :: remaining activity at 10 µM lookup needed for CC(=O)N[C@@H](Cc1ccc(CP(=O)(O)O)cc1)C(=O)NC1(C(=O)N[C@@H](CC(N)=O)C(=O)NCCCc2c(O)ccc3ccccc23)CCCCC1 , thanks.
Result :: 111

---

Target: SH2D1B (Homo sapiens, UniProt O14796)
Construct: made in house; host or cells: HEK293 (transient transfection), unpurified extract
Sequence (O14796 whole entry): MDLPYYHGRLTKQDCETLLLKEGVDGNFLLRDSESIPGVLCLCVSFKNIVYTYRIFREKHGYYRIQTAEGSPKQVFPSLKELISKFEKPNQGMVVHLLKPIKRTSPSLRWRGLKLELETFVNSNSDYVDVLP
Assay: biochemical
Format: binding
Settings: read-out: percent of DMSO vehicle control
Non-standard residues stand in square brackets, D forms with d. Residues, ends and D or L forms follow the SMILES beside them. *: point of attachment. pY = N[C@@H](Cc1ccc(OP(=O)(O)O)cc1)C(=O)O; Caffeoyl = O=C(/C=C/c1ccc(O)c(O)c1)*
assayReadout: remaining activity at 10 µM (%)
Your answer is read as %, so omit the unit and give the number.

Query :: Requested read-out: remaining activity at 10 µM. Entry: NC(=O)CC[C@H](NC(=O)[C@@H]1CC[C@@H]2CCN(C(=O)CCCCCC#Cc3cccc4c3CN(C3CCC(=O)NC3=O)C4=O)C[C@H](NC(=O)c3cc4cc(C(F)(F)P(=O)(O)O)ccc4[nH]3)C(=O)N21)C(=O)NC(c1ccccc1)c1ccccc1 (stereo partly shown) [SD-36]
Result :: 99.6

Query :: I'd like to know its remaining activity at 10 µM. The molecule in question is CC[C@H](C)[C@H](NC(=O)[C@H](CCC(=O)O)NC(=O)[C@H](CCC(=O)O)NC(=O)[C@H](Cc1ccc(OP(=O)(O)O)cc1)NC(=O)/C=C/c1ccc(O)c(O)c1)C(=O)N[C@@H](CCC(=O)O)C(=O)O [Caffeic acid-pYEEIE] (Caffeoyl-[pY]EEIE-OH)
Result :: 12.9

Query :: Which remaining activity at 10 µM reading was recorded for the molecule CC(=O)N[C@@H](Cc1ccc(CP(=O)(O)O)cc1)C(=O)NC1(C(=O)N[C@@H](CC(N)=O)C(=O)NCCCc2c(O)ccc3ccccc23)CCCCC1 [CGP78850] ?
Result :: 77.3

Query :: Can you share its remaining activity at 10 µM? I mean this molecule: CC(=O)N1CC[C@H]2CC[C@@H](C(=O)N[C@@H](CCC(N)=O)C(=O)NC(c3ccccc3)c3ccccc3)N2C(=O)[C@@H](NC(=O)c2cc3cc(C(F)(F)P(=O)(O)O)ccc3[nH]2)C1 [SI-109]
Result :: 223

---

Molecular target: SRC (Homo sapiens, UniProt P12931)
Construct: made in house; host or cells: HEK293 (transient transfection), unpurified extract
Sequence (P12931 whole entry): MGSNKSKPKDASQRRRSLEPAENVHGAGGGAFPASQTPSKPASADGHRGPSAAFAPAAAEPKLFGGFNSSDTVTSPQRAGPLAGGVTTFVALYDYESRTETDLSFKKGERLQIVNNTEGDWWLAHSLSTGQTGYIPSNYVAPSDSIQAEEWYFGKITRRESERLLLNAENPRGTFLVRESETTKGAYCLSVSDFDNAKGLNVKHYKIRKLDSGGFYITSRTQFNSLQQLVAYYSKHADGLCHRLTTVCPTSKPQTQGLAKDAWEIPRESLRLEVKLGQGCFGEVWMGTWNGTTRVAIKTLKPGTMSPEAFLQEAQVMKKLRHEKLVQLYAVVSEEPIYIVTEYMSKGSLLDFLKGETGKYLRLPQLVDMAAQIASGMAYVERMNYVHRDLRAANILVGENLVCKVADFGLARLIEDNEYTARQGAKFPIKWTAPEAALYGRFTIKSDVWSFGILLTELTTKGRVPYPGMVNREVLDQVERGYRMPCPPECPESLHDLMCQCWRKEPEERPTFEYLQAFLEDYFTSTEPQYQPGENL
Test: biochemical
Type: binding
Conditions: primary screen, 10 μM; read-out: percent of DMSO vehicle control
// remaining activity at 10 µM lookup, one value per entry
Lab book: enter the figure in %, no units written.

// solved cases for remaining activity at 10 µM follow
C/C(=C\C(=O)N[C@H](C(=O)N1CCC[C@H]1C(=O)N(c1ccccc1)c1ccc(I)cc1)C(C)(C)C)c1ccc(OP(=O)(O)O)cc1
53.3
CC(C)(C)[C@H](NC(=O)/C=C/c1ccc(OP(=O)(O)O)cc1)C(=O)N1CCC[C@H]1C(=O)N(c1ccccc1)c1ccc(I)cc1
67
O=C(CCl)Nc1cccc(CNC(=O)[C@H](Cc2ccc(OP(=O)(O)O)cc2)NC(=O)Cc2ccc(F)cc2)c1
70.2

Could you now consider this next compound?
Query :: Look up remaining activity at 10 µM for this compound: O=C(COc1ccc2cc(C(=O)Nc3ccccc3)ccc2c1)NCc1ccc(OP(=O)(O)O)c(OP(=O)(O)O)c1
Result :: 90.6

---

Molecular target: SOCS6 (Homo sapiens, UniProt O14544)
Construct: made in house; host or cells: HEK293 (transient transfection), unpurified extract
Sequence (O14544 whole entry): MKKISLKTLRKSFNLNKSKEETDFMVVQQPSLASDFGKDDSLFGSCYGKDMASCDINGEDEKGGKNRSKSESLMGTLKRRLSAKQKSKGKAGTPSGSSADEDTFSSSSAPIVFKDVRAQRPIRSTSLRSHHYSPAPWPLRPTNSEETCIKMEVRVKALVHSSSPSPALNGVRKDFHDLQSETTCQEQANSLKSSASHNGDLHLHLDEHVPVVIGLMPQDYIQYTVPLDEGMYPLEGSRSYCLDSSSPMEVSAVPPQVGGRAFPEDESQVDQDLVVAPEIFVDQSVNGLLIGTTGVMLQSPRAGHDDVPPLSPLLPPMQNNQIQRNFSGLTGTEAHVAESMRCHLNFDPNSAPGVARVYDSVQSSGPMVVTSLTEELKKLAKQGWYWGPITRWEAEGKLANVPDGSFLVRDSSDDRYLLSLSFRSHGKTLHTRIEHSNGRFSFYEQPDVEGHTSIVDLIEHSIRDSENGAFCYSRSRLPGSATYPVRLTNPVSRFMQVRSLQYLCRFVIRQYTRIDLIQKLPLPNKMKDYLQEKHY
Experiment: biochemical
Assay type: binding
Conditions: primary screen, 10 μM; read-out: percent of DMSO vehicle control
assayReadout: remaining activity at 10 µM (%)
Report the figure in % without appending any unit label.

Worked examples, 3 compounds total:
O=C(COc1ccc2cc(C(=O)Nc3ccccc3)ccc2c1)NCc1ccc(OP(=O)(O)O)c(OP(=O)(O)O)c1 [Stafib-1]
96.9
O=C(CCl)Nc1cccc(CNC(=O)[C@H](Cc2ccc(OP(=O)(O)O)cc2)NC(=O)Cc2ccc(F)cc2)c1 [MN551]
65.2
CC(C)(C)[C@H](NC(=O)/C=C/c1ccc(OP(=O)(O)O)cc1)C(=O)N1CCC[C@H]1C(=O)N(c1ccccc1)c1ccc(I)cc1 [STAT6-IN-3]
90.2

Next, consider the following compound.
Query :: Sample C/C(=C\C(=O)N[C@H](C(=O)N1CCC[C@H]1C(=O)N(c1ccccc1)c1ccc(I)cc1)C(C)(C)C)c1ccc(OP(=O)(O)O)cc1 [STAT6-IN-1] — what was its remaining activity at 10 µM?
Result :: 44.1

---

Biological target: STAT3(S614R)-nonphosphorylated (Homo sapiens, UniProt P40763, S614R)
Construct: made in house; host or cells: HEK293 (transient transfection), unpurified extract, dephosphorylated by endogenous phosphatases
Sequence (P40763 whole entry S614R): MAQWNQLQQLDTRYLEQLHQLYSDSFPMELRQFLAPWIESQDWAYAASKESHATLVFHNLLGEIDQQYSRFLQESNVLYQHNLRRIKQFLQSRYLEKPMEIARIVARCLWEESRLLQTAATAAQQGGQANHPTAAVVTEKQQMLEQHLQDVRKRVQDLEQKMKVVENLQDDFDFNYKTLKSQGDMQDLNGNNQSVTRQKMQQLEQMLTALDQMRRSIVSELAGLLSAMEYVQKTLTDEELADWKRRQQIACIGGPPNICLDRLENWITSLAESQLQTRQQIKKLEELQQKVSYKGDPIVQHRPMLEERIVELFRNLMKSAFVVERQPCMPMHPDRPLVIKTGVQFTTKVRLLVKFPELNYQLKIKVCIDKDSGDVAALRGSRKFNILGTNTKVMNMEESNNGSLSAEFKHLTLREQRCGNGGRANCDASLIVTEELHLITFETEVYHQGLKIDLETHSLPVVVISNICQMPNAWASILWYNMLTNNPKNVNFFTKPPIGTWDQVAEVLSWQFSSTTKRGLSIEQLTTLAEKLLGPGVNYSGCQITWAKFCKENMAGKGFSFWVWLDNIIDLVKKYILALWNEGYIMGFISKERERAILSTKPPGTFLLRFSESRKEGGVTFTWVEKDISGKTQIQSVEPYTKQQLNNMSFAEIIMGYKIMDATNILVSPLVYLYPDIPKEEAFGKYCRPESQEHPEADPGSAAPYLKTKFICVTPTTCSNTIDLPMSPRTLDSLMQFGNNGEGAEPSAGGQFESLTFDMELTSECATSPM
Assay: biochemical
Type: binding
Details: dose-response; read-out: KD
Measured Kd values are reported for all entries that follow.
Reply with just the number (in nM).

CC(C)(C)[C@H](NC(=O)/C=C/c1ccc(OP(=O)(O)O)cc1)C(=O)N1CCC[C@H]1C(=O)N(c1ccccc1)c1ccc(I)cc1
140

Query :: Return reported Kd; argument: C/C(=C\C(=O)N[C@H](C(=O)N1CCC[C@H]1C(=O)N(c1ccccc1)c1ccc(I)cc1)C(C)(C)C)c1ccc(OP(=O)(O)O)cc1
Result :: 88
